# Experimental target: Activin receptor type-1 (Homo sapiens); also: in the data inactive means no Kd found up to 30 µM
# Sequence (Q04771 whole entry): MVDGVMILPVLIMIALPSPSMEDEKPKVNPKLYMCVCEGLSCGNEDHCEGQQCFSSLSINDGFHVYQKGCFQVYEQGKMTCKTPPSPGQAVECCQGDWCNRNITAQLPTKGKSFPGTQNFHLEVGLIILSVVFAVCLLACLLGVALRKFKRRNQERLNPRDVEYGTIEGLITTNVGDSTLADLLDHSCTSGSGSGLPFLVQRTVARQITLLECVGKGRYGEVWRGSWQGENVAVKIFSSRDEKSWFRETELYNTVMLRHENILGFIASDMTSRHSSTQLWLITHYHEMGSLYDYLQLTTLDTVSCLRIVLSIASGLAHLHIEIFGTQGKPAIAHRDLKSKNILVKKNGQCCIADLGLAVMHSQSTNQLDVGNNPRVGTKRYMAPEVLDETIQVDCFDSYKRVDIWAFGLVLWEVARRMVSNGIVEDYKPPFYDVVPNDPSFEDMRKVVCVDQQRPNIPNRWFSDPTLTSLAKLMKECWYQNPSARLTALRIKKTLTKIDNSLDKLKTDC
Activity calls are given as the source filed them.
Field 'call' accepts Y = active, N = inactive

Kindly provide the recorded test outcome for the following compound: "COCc1c(-c2ccc(NC(=O)Nc3cc(C(F)(F)F)ccc3F)c(F)c2)c2c(N)ncnn2c1CN1CCOCC1"
N

Request: "CNC(=O)c1nn(C)c2c1C(C)(C)Cc1cnc(Nc3ccc(N4CCN(C)CC4)cc3)nc1-2"
Y

Cool, now "Cc1nc(Nc2n[nH]c3c2CN(C(=O)N[C@H](CN(C)C)c2ccccc2)C3(C)C)c2sccc2n1"
N

Moving on to "Cc1nc2cc(-c3nn(C(C)C)c4ncnc(N)c34)ccc2o1"
Y

Try the compound "C[C@H]1CNCCCN1S(=O)(=O)c1cccc2cncc(F)c12"
N

====

In this section, each of the compounds is paired with its reported Kd.
# Experimental target: Membrane-associated tyrosine- and threonine-specific cdc2-inhibitory kinase (Homo sapiens); also: in the data inactive means no Kd found up to 30 µM
# Sequence (Q99640 whole entry): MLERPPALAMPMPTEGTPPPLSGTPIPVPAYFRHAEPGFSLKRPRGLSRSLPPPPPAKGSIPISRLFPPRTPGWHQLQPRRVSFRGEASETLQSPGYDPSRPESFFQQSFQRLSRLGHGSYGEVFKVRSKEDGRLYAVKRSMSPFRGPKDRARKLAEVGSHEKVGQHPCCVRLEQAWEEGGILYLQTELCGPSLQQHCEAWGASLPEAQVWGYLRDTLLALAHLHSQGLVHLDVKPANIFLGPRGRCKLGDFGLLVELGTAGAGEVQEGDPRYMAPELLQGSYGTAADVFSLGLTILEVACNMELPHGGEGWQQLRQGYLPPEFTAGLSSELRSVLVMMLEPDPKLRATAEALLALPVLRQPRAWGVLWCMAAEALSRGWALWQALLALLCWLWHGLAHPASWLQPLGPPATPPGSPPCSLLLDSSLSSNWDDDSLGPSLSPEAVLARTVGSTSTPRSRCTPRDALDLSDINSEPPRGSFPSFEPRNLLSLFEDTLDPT
Calls of active or inactive are those of the source.

Compound: NC(=O)Nc1cc(-c2cccc(F)c2)sc1C(=O)N[C@H]1CCCNC1
Kd: > 30 µM (inactive)

Compound: O=C(Cc1ccc(-c2ccc(OCCN3CCOCC3)cc2)cn1)NCc1ccccc1
Kd: > 30 µM (inactive)

Compound: CCCCCCCCCCCCCCCCCCOP(=O)([O-])OC1CC[N+](C)(C)CC1
Kd: > 30 µM (inactive)

Compound: Cn1cnc2c(F)c(Nc3ccc(Br)cc3F)c(C(=O)NOCCO)cc21
Kd: > 30 µM (inactive)

Compound: N#CC1(c2ccc(NC(=O)c3cccnc3NCc3ccncc3)cc2)CCCC1
Kd: > 30 µM (inactive)

Which Kd is listed for O=c1[nH]ccc2cc(OC3CCNCC3)ccc12 [SAR-407899 FREE BASE] ?
> 30 µM (inactive)

Here is the next compound: "CC(=O)NCC(=O)N1[C@@H]2CC[C@H]1c1ccc(Nc3ncc(C(F)(F)F)c(NC4CCC4)n3)cc12"
> 30 µM (inactive)

Let us now turn to C=CC(=O)Nc1cc2c(Nc3ccc(F)c(Cl)c3)ncnc2cc1C#CC(C)(C)N1CCN(C)CC1 [AV-412 FREE BASE]
> 30 µM (inactive)

====

# Experimental target: Serine/threonine-protein kinase N2 (Homo sapiens); also: in the data inactive means no Kd found up to 30 µM
# Sequence (Q16513 whole entry): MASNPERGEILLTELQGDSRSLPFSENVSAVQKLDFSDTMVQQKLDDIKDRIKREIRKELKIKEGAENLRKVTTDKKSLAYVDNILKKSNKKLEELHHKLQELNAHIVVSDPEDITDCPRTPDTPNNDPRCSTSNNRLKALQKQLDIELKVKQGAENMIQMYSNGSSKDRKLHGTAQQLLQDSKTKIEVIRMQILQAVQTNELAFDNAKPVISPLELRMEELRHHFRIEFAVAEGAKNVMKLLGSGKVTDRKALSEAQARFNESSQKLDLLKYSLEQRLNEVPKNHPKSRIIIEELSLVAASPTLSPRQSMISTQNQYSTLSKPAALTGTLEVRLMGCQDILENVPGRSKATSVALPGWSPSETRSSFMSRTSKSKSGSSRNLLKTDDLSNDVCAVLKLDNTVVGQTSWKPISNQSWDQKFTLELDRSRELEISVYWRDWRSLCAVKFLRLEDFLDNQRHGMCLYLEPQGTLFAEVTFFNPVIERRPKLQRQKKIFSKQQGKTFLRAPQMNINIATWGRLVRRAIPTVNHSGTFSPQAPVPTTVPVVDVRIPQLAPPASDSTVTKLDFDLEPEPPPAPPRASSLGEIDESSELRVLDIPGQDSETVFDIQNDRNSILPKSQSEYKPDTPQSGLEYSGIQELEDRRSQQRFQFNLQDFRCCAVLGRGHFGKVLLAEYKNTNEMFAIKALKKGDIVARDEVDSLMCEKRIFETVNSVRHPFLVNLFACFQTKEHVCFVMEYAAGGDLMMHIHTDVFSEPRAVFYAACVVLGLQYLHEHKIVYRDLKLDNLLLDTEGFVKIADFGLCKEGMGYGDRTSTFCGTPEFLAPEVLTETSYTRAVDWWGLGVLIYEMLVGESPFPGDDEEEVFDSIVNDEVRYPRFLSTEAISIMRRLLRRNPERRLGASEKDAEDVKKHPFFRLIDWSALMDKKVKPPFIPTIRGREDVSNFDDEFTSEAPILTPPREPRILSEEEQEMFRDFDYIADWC
Activity calls are given as the source filed them.
// classify into active, inactive

Compound: COCc1c(-c2ccc(NC(=O)Nc3cc(C(F)(F)F)ccc3F)c(F)c2)c2c(N)ncnn2c1CN1CCOCC1
Label value: inactive

Just curious, what result did Cc1cccc(-c2nn3c(c2-c2ccnc4ccc(C(N)=O)cc24)CCC3)n1 [GALUNISERTIB] get here?
inactive

For "C[C@@H](Oc1cc(C(=O)Nc2ccc(C(=O)N3CCN(C)CC3)cc2)nnc1N)c1c(Cl)ccc(F)c1Cl" then?
inactive

Next entry: COc1c(OCCCN2CCOCC2)ccc2c1N=C(NC(=O)c1cnc(N)nc1)N1CCN=C21 [COPANLISIB]
inactive

What would you report for Cc1cc(Nc2ncnc3ccc(NC4=NC(C)(C)CO4)cc23)ccc1Oc1ccn2ncnc2c1 [TUCATINIB] ?
inactive

Please give the result for C[C@@H](N)c1ccc(C(=O)Nc2ccnc3[nH]ccc23)cc1 [Y-39983] too.
active

# iterate: N#CC1(c2ccc(NC(=O)c3cccnc3NCc3ccncc3)cc2)CCCC1 [RIVOCERANIB]
inactive

Next compound up: O=C(Nc1cc(C(F)(F)F)cc(C(F)(F)F)c1)c1cc(Cl)ccc1O [IMD-0354]
inactive

Moving on to the next compound: COCC(=O)NC/C=C/c1ccc2ncnc(Nc3ccc(Oc4ccc(C)nc4)c(C)c3)c2c1 [CP-724714]
inactive

# repeat for C#Cc1cccc(Nc2ncnc3cc(OC)c(OCCCCCCC(=O)NO)cc23)c1 [CUDC-101]
inactive

Entry to check: CN1CCN(CCOc2cc(OC3CCOCC3)c3c(Nc4c(Cl)ccc5c4OCO5)ncnc3c2)CC1 [SARACATINIB]
inactive

Follow-up item: CCOc1cc2ncc(C#N)c(Nc3ccc(F)c(Cl)c3)c2cc1NC(=O)/C=C/CN(C)C [PELITINIB]
inactive

Next: O=C(Cc1ccc(-c2ccc(OCCN3CCOCC3)cc2)cn1)NCc1ccccc1 [TIRBANIBULIN]
inactive

Do the same for NC1(c2ccc(-c3nc4ccn5c(=O)[nH]nc5c4cc3-c3ccccc3)cc2)CCC1 [MK-2206] please
inactive

Ok, now CO[C@H]1C[C@@H]2CC[C@@H](C)[C@@](O)(O2)C(=O)C(=O)N2CCCC[C@H]2C(=O)O[C@H]([C@H](C)C[C@@H]2CC[C@@H](OC(=O)C(C)(CO)CO)[C@H](OC)C2)CC(=O)[C@H](C)/C=C(\C)[C@@H](O)[C@@H](OC)C(=O)[C@H](C)C[C@H](C)/C=C/C=C/C=C/1C [TEMSIROLIMUS]
inactive

What about this compound? Cn1cc(-c2cnc3ccc4ccc(CS(=O)(=O)NCc5ccccn5)cc4c(=O)c3c2)cn1 [MK-8033]
inactive

Consider next the compound COc1cc2ncnc(Oc3cccc(NC(=O)Nc4cc(C(C)(C)C(F)(F)F)on4)c3)c2cc1OC [CEP-32496] in the same way.
inactive

Please do the same for "C[C@H]1CNCCCN1S(=O)(=O)c1cccc2cncc(F)c12" as well.
active

Record: COc1ncc(-c2ccc3nccc(-c4ccnnc4)c3c2)cc1NS(=O)(=O)c1ccc(F)cc1F [OMIPALISIB]
inactive

What about this compound? O=C(Nc1nc2cccc(-c3ccc(CN4CCS(=O)(=O)CC4)cc3)n2n1)C1CC1 [FILGOTINIB]
inactive
